Test: Bioavailability in rat at 0.1 mg/kg, iv and 1 mg/kg, po by LC/MS/MS analysis
Assay type: ADME, organism-based
Settings: in vivo
ASSAY_READOUT: bioavailability (%)
Field: numeric (%). Do not append units.

Note to self: bioavailability recorded for Cc1ccc(-c2c(CC(=O)N3CCC[C@H]3C(N)=O)c(C)nc(CC(C)C)c2CN)cc1.Cl.Cl was 4.9

----------
Experiment: Mean residence time in dog at 1 mg/kg, po by LC/MS/MS analysis
Assay type: ADME, organism-based, Canis lupus familiaris
Set-up: dose 1 mg/kg, route oral
Details: in vivo
ASSAY_READOUT: MRT (h)
Return type: number; implicit unit h.

MRT recorded for this molecule, Cc1ccc(-c2c(CC(=O)N3CCC[C@H]3C(N)=O)c(C)nc(CC(C)C)c2CN)cc1.Cl.Cl , is 4.35

----------
Test: Mean residence time in rat at 1 mg/kg, po by LC/MS/MS analysis
Assay type: ADME, organism-based
Parameters: dose 1 mg/kg, route oral
Conditions: in vivo
ASSAY_READOUT: MRT (h)
All answers are understood in h, so give the number only.

Entry Cc1ccc(-c2c(CC(=O)N3CCC[C@H]3C(N)=O)c(C)nc(CC(C)C)c2CN)cc1.Cl.Cl — recorded MRT = 11.2

These entries and their values trace back to ChEMBL document CHEMBL1641432.
